# Tested on: BT-474
# protocol summary: normalised response (% of control), CellTiter-Glo; higher = more viable cells (100 = DMSO, 0 = benzethonium chloride kill control)
# experimental context: incubation time: 72 h
Assignment: determine reported normalised response for the given compounds.
The reply should be a number in %, with the unit left off.

// query Request - read-out normalised response | tested on BT-474 | compound O=C1c2c(O)ccc(O)c2C(=O)c2c(NCCNCCO)ccc(NCCNCCO)c21 [Mitoxantrone] (10 nM)
// result 96.1

// query Request - read-out normalised response | tested on BT-474 | compound Cc1ccc(Nc2nccc(N(C)c3ccc4c(C)n(C)nc4c3)n2)cc1S(N)(=O)=O [Pazopanib] (100 nM)
// result 107

// query Request - read-out normalised response | tested on BT-474 | compound CCN(CC)CCNC(=O)c1c(C)[nH]c(/C=C2\C(=O)Nc3ccc(F)cc32)c1C [Sunitinib] (10 nM)
// result 101

// query Request - read-out normalised response | tested on BT-474 | compound Nc1cccc2c1CN(C1CCC(=O)NC1=O)C2=O (stereo unspecified) [Lenalidomide] (100 nM)
// result 103

// query Request - read-out normalised response | tested on BT-474 | compound CCC/C=C/C=C/C(=O)O[C@H]1/C(=C/C(=O)OC)C[C@H]2C[C@H]([C@@H](C)O)OC(=O)C[C@H](O)C[C@@H]3C[C@H](OC(C)=O)C(C)(C)[C@](O)(C[C@@H]4C/C(=C/C(=O)OC)C[C@H](/C=C/C(C)(C)[C@]1(O)O2)O4)O3 [Bryostatin 1] (1 nM)
// result 92.3

// query Request - read-out normalised response | tested on BT-474 | compound CS(=O)(=O)N1CCN(Cc2cc3nc(-c4cccc5[nH]ncc45)nc(N4CCOCC4)c3s2)CC1 [Pictilisib] (100 nM)
// result 86.9

---

Assignment: determine reported normalised viability for the given compounds.
# Test system: CAL-148
# protocol summary: normalised viability (% of control), CellTiter-Blue; higher = more viable cells (100 = DMSO, 0 = benzethonium chloride kill control)
# experimental context: 0.1 nM; incubation time: 72 h
Record the result as a number with its unit.

// query Request - read-out normalised viability | tested on CAL-148 | compound `Cc1cccc(-c2nn3c(c2-c2ccnc4ccc(C(N)=O)cc24)CCC3)n1`
// result 104%

// query Request - read-out normalised viability | tested on CAL-148 | compound `CC[C@@]1(O)C(=O)OCc2c1cc1n(c2=O)Cc2cc3c(CN(C)C)c(O)ccc3nc2-1`
// result 103%

// query Request - read-out normalised viability | tested on CAL-148 | compound COc1cc(CCc2cc(NC(=O)c3ccc(N4CC(C)NC(C)C4)cc3)n[nH]2)cc(OC)c1 (centres undefined)
// result 113%

// query Request - read-out normalised viability | tested on CAL-148 | compound `Cn1cc(CNCC2CCN(c3ncc(C(=O)NO)cn3)CC2)c2ccccc21`
// result 103%

---

# Tested on: SK-BR-3
# protocol summary: normalised response (% of control), CellTiter-Glo; higher = more viable cells (100 = DMSO, 0 = benzethonium chloride kill control)
# experimental context: incubation time: 72 h
value type: normalised response (%)
The reply should be a number in %, with the unit left off.

// query Requested read-out: normalised response. Entry: CCCCC/C=C/C=C1/C(=O)C=C[C@@H]1C/C=C\CCCC(=O)O [15D-PGJ2] (8 nM)
// result 99.4

// query Requested read-out: normalised response. Entry: Cc1nc(Nc2ncc(C(=O)Nc3c(C)cccc3Cl)s2)cc(N2CCN(CCO)CC2)n1 [Dasatinib] (10 nM)
// result 101

// query Requested read-out: normalised response. Entry: Nc1cccc2c1CN(C1CCC(=O)NC1=O)C2=O (configuration not stated) [Lenalidomide] (100 nM)
// result 98.4

// query Requested read-out: normalised response. Entry: C[C@]12C=CC(=O)C=C1CC[C@@H]1[C@@H]2[C@@H](O)C[C@@]2(C)[C@H]1CC[C@]2(O)C(=O)CO [Prednisolone] (100 nM)
// result 104

// query Requested read-out: normalised response. Entry: C[C@]12O[C@H](C[C@]1(O)CO)n1c3ccccc3c3c4c(c5c6ccccc6n2c5c31)CNC4=O [Lestaurtinib] (10 nM)
// result 82.4

// query Requested read-out: normalised response. Entry: CCC/C=C/C=C/C(=O)O[C@H]1/C(=C/C(=O)OC)C[C@H]2C[C@H]([C@@H](C)O)OC(=O)C[C@H](O)C[C@@H]3C[C@H](OC(C)=O)C(C)(C)[C@](O)(C[C@@H]4C/C(=C/C(=O)OC)C[C@H](/C=C/C(C)(C)[C@]1(O)O2)O4)O3 [Bryostatin 1] (1 nM)
// result 66.2

// query Requested read-out: normalised response. Entry: O=S(=O)(c1cccc2cnccc12)N1CCCNCC1 [Fasudil] (500 nM)
// result 101
